# Species: Rattus norvegicus
# assayOverview: Open TG-GATES - Regimen: Single
# Type: toxicity, organism-based, Sprague-Dawley
# Parameters: regimen Single, gender Male, age 6 weeks
# settings: in vivo, po, 300 mg/kg, 3 h, tissue Plasma, route gavage, dose level Middle
Decide by GLC: equal to or exceeding 200 mg/dL means yes, less means no.

• COC(=O)C1=C(C)NC(C)=C(C(=O)OC)C1c1ccccc1[N+](=O)[O-] = yes
• Cc1nnc2n1-c1ccc(Cl)cc1C(c1ccccc1Cl)=NC2 = no
• CN/C(=N/CCSCc1nc[nH]c1C)NC#N = no

----------
# Species on record: Rattus norvegicus
# assayOverview: Open TG-GATES - Regimen: Single
# Assay type: toxicity, organism-based, Sprague-Dawley
# Set-up: regimen Single, gender Male, age 6 weeks
# settings: in vivo, po, 1000 mg/kg, 24 h, tissue Blood, route gavage, dose level High
// MCHC lookup, one value per entry
measuredParameter: MCHC (%)

* Cc1nnc2n1-c1ccc(Cl)cc1C(c1ccccc1Cl)=NC2 [TRIAZOLAM] | 33.4
* CN/C(=N/CCSCc1nc[nH]c1C)NC#N [CIMETIDINE] | 33.6
* COC(=O)C1=C(C)NC(C)=C(C(=O)OC)C1c1ccccc1[N+](=O)[O-] [NIFEDIPINE] | 33.1

----------
# Species: Rattus norvegicus
# assayOverview: Open TG-GATES - Regimen: Single
# Format: toxicity, organism-based, Sprague-Dawley
# Design: regimen Single, gender Male, age 6 weeks
# settings: in vivo, po, 1000 mg/kg, 24 h, tissue Blood, route gavage, dose level High
measuredParameter: Neu (%)

• COC(=O)C1=C(C)NC(C)=C(C(=O)OC)C1c1ccccc1[N+](=O)[O-] = 22
• CNC(=C[N+](=O)[O-])NCCSCc1ccc(CN(C)C)o1 = 15
• Cc1nnc2n1-c1ccc(Cl)cc1C(c1ccccc1Cl)=NC2 = 20.4

----------
# Organism: Rattus norvegicus
# assayOverview: Open TG-GATES - Regimen: Single
# Type: toxicity, organism-based, Sprague-Dawley
# Set-up: regimen Single, gender Male, age 6 weeks
# settings: in vivo, po, 300 mg/kg, 3 h, tissue Plasma, route gavage, dose level Middle
measuredParameter: TP (g/dL)

* CN/C(=N/CCSCc1nc[nH]c1C)NC#N | 5.4
* COC(=O)C1=C(C)NC(C)=C(C(=O)OC)C1c1ccccc1[N+](=O)[O-] | 5.3
* O=C(OC[C@H]1O[C@@H](OC(=O)c2cc(O)c(O)c(OC(=O)c3cc(O)c(O)c(O)c3)c2)[C@H](OC(=O)c2cc(O)c(O)c(OC(=O)c3cc(O)c(O)c(O)c3)c2)[C@@H](OC(=O)c2cc(O)c(O)c(OC(=O)c3cc(O)c(O)c(O)c3)c2)[C@@H]1OC(=O)c1cc(O)c(O)c(OC(=O)c2cc(O)c(O)c(O)c2)c1)c1cc(O)c(O)c(OC(=O)c2cc(O)c(O)c(O)c2)c1 | 5.3
* Cc1nnc2n1-c1ccc(Cl)cc1C(c1ccccc1Cl)=NC2 | 5.2
* CNC(=C[N+](=O)[O-])NCCSCc1ccc(CN(C)C)o1 | 5.5

----------
// APTT lookup, one value per entry
# Organism: Rattus norvegicus
# assayOverview: Open TG-GATES - Regimen: Daily Repeat
# Format: toxicity, organism-based, Sprague-Dawley
# Set-up: regimen Daily Repeat, gender Male, age 6 weeks
# settings: in vivo, po, 1000 mg/kg, […], tissue Blood, route gavage, dose level High, time 28 day
measuredParameter: APTT (s)

• CN/C(=N/CCSCc1nc[nH]c1C)NC#N = 19.4
• COC(=O)C1=C(C)NC(C)=C(C(=O)OC)C1c1ccccc1[N+](=O)[O-] = 21.7
• O=C(OC[C@H]1O[C@@H](OC(=O)c2cc(O)c(O)c(OC(=O)c3cc(O)c(O)c(O)c3)c2)[C@H](OC(=O)c2cc(O)c(O)c(OC(=O)c3cc(O)c(O)c(O)c3)c2)[C@@H](OC(=O)c2cc(O)c(O)c(OC(=O)c3cc(O)c(O)c(O)c3)c2)[C@@H]1OC(=O)c1cc(O)c(O)c(OC(=O)c2cc(O)c(O)c(O)c2)c1)c1cc(O)c(O)c(OC(=O)c2cc(O)c(O)c(O)c2)c1 = 16
• Cc1nnc2n1-c1ccc(Cl)cc1C(c1ccccc1Cl)=NC2 = 18.3
• CNC(=C[N+](=O)[O-])NCCSCc1ccc(CN(C)C)o1 = 19.8
• CCOc1ccc(NC(C)=O)cc1 = 18.1
